Hi there, I'd appreciate the recorded switch fluorescence ratio for every entry that follows.
System: ATP;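 further: ATP exposure 15 min at 22 °C before imaging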
protocol: switch fluorescence ratio, 500 uM ATP over buffer (Cy3 cluster intensity, sum of 5 cycles each) (fold (ratio)); higher = stronger signal-on switching upon ATP binding; sequences stand for … in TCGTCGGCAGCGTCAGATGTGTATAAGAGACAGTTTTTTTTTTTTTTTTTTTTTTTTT…TC
condition.info: aptamer strand: ATP DNA aptamer (quencher-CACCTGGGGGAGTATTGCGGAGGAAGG + anchor), 100 nM annealed; ATP concentration: 500 uM
// no unit string in output, number only

Ask | Recorded switch fluorescence ratio of GGATTGGGCG , please.
Reply | 0.986

Ask | Recorded switch fluorescence ratio of TGTTGCTGGG , please.
Reply | 1

Ask | Recorded switch fluorescence ratio of CTCCATATTA , please.
Reply | 1.06

Ask | Recorded switch fluorescence ratio of TGAGTCATAC , please.
Reply | 1.05

Ask | Recorded switch fluorescence ratio of AGGCGGGTGG , please.
Reply | 1.03

Ask | Recorded switch fluorescence ratio of TTGTATGTTA , please.
Reply | 1

Ask | Recorded switch fluorescence ratio of TTTTTTTTTA , please.
Reply | 1.01

Ask | Recorded switch fluorescence ratio of TTGCGCCTTT , please.
Reply | 1.03

Ask | Recorded switch fluorescence ratio of ATTTAAAATC , please.
Reply | 0.961

Ask | Recorded switch fluorescence ratio of CCTAGGGTTA , please.
Reply | 1.01

Ask | Recorded switch fluorescence ratio of CAGATCGGTT , please.
Reply | 0.964

Ask | Recorded switch fluorescence ratio of GAATTATTAA , please.
Reply | 0.992

Ask | Recorded switch fluorescence ratio of AGATTGATGC , please.
Reply | 1.03

Ask | Recorded switch fluorescence ratio of AATTATCGAC , please.
Reply | 1

Ask | Recorded switch fluorescence ratio of TTAATAGGCC , please.
Reply | 0.974

Ask | Recorded switch fluorescence ratio of GATATGGGCA , please.
Reply | 1.04

Ask | Recorded switch fluorescence ratio of ACGGTTTGCG , please.
Reply | 0.979

Ask | Recorded switch fluorescence ratio of AAGGGTGCGA , please.
Reply | 1.02

Ask | Recorded switch fluorescence ratio of AAAAGGGATT , please.
Reply | 0.98

Ask | Recorded switch fluorescence ratio of AAAAAAGGAC , please.
Reply | 1.03

---

Hi there, I'd appreciate the recorded switch fluorescence ratio for every entry that follows.
System: ATP;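 further: ATP exposure 15 min at 22 °C before imaging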
protocol: switch fluorescence ratio, 500 uM ATP over buffer (Cy3 cluster intensity, sum of 5 cycles each) (fold (ratio)); higher = stronger signal-on switching upon ATP binding; sequences stand for … in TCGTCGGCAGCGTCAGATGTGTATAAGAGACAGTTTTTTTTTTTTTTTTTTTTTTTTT…TC
condition.info: aptamer strand: ATP DNA aptamer (quencher-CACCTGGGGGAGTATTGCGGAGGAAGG + anchor), 100 nM annealed; ATP concentration: 500 uM
// no unit string in output, number only

Ask | # query: switch fluorescence ratio | item TGGATTCCTA | system: ATP;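 further: ATP exposure 15 min at 22 °C before imaging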
Reply | 1

Ask | # query: switch fluorescence ratio | item TAGTTAATTT | system: ATP;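 further: ATP exposure 15 min at 22 °C before imaging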
Reply | 1.01

Ask | # query: switch fluorescence ratio | item CAGATGTGGC | system: ATP;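 further: ATP exposure 15 min at 22 °C before imaging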
Reply | 0.927

Ask | # query: switch fluorescence ratio | item ACTGAACGGT | system: ATP;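 further: ATP exposure 15 min at 22 °C before imaging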
Reply | 1.14

Ask | # query: switch fluorescence ratio | item TAGATAATGC | system: ATP;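 further: ATP exposure 15 min at 22 °C before imaging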
Reply | 1.07

Ask | # query: switch fluorescence ratio | item GAAGGGTATT | system: ATP;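 further: ATP exposure 15 min at 22 °C before imaging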
Reply | 1.01

Ask | # query: switch fluorescence ratio | item TTGAACCTTT | system: ATP;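 further: ATP exposure 15 min at 22 °C before imaging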
Reply | 1.02

Ask | # query: switch fluorescence ratio | item CACGACTTCC | system: ATP;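 further: ATP exposure 15 min at 22 °C before imaging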
Reply | 2.27

Ask | # query: switch fluorescence ratio | item CTTAACTTAG | system: ATP;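 further: ATP exposure 15 min at 22 °C before imaging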
Reply | 1.05

Ask | # query: switch fluorescence ratio | item AGTAGGAAGG | system: ATP;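 further: ATP exposure 15 min at 22 °C before imaging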
Reply | 1.01

Ask | # query: switch fluorescence ratio | item CACCAGAGCT | system: ATP;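 further: ATP exposure 15 min at 22 °C before imaging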
Reply | 1.09

Ask | # query: switch fluorescence ratio | item AGGGTGATAC | system: ATP;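 further: ATP exposure 15 min at 22 °C before imaging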
Reply | 1.61

Ask | # query: switch fluorescence ratio | item TGCGACTCGG | system: ATP;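 further: ATP exposure 15 min at 22 °C before imaging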
Reply | 0.999

Ask | # query: switch fluorescence ratio | item GGTACGAAAG | system: ATP;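 further: ATP exposure 15 min at 22 °C before imaging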
Reply | 1.01

Ask | # query: switch fluorescence ratio | item TTTTCTACTT | system: ATP;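 further: ATP exposure 15 min at 22 °C before imaging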
Reply | 0.999

Ask | # query: switch fluorescence ratio | item TTTATTTTCT | system: ATP;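 further: ATP exposure 15 min at 22 °C before imaging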
Reply | 0.991

Ask | # query: switch fluorescence ratio | item GTGGCATACT | system: ATP;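 further: ATP exposure 15 min at 22 °C before imaging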
Reply | 1.12

Ask | # query: switch fluorescence ratio | item TGGGGATGTA | system: ATP;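 further: ATP exposure 15 min at 22 °C before imaging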
Reply | 0.976
